Every entry's value here was drawn from the supplement of paper PMC6757056.

B1: library; a variant is named by its letters at N, in order (parent)
chain: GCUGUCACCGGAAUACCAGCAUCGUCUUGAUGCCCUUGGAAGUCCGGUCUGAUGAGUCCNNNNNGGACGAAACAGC

Variants of: B1
Test: FACS-Seq fitted mean relative fluorescence mCherry/BFP with ligand (log10 relative fluorescence); ligand concentration (+) FACS-Seq: 1 mM; higher = higher reporter protein expression
Conditions: HEK293T, ligand present: yes
Param threshold (0.8) applies to FACS-Seq fitted mean (log10); output Met when value >= threshold, Not met when value < threshold.

Solved cases below.
GCUGUCACCGGAAUACCAGCAUCGUCUUGAUGCCCUUGGAAGUCCGGUCUGAUGAGUCCUUGUAGGACGAAACAGC [UUGUA]    Not met
GCUGUCACCGGAAUACCAGCAUCGUCUUGAUGCCCUUGGAAGUCCGGUCUGAUGAGUCCUGGUGGGACGAAACAGC [UGGUG]    Not met
GCUGUCACCGGAAUACCAGCAUCGUCUUGAUGCCCUUGGAAGUCCGGUCUGAUGAGUCCAAAGUGGACGAAACAGC [AAAGU]    Met
GCUGUCACCGGAAUACCAGCAUCGUCUUGAUGCCCUUGGAAGUCCGGUCUGAUGAGUCCAGACGGGACGAAACAGC [AGACG]    Met
GCUGUCACCGGAAUACCAGCAUCGUCUUGAUGCCCUUGGAAGUCCGGUCUGAUGAGUCCACCGCGGACGAAACAGC [ACCGC]    Met

Exam item: Could you tell me if the measured FACS-Seq fitted mean (log10) of GCUGUCACCGGAAUACCAGCAUCGUCUUGAUGCCCUUGGAAGUCCGGUCUGAUGAGUCCUGCGAGGACGAAACAGC [UGCGA] reaches 0.8 or more?
Marked response: Not met

Exam item: Another: GCUGUCACCGGAAUACCAGCAUCGUCUUGAUGCCCUUGGAAGUCCGGUCUGAUGAGUCCAUCGUGGACGAAACAGC [AUCGU]
Marked response: Met
